System: 422866-222-R5-J1-PDC complex spheroids viability
Assay: Anticancer human tumor 422866-222-R5-J1-PDC patient-derived pancreatic adenocarcinoma cell line growth inhibition [RAS]
Details: curve of first compound; second compound 0.003 µM
pIC50: −log10 of the molar value.
This section presents compounds with their documented pIC50 values.

INSERT INTO results (compound, targetorsystem, value) VALUES
  ('CCC(CC)c1cc(NC2CCC(N)C2)n2nccc2n1 (centres undefined) + CCn1c(-c2cccnc2C(C)OC)c2c3cc(ccc31)N1CCOC(CC(NC(=O)C(C(C)C)N(C)C(=O)C3(F)CCN(C(=O)C#CC(C)(C)N(C)C)CC3)C(=O)N3CCCC(N3)C(=O)OCC(C)(C)C2)C1', '422866-222-R5-J1-PDC complex spheroids viability', '> 7.50'),
  ('C=CC(=O)N1CCN(c2nc(OCC3CCCN3C)nc3c(F)c(-c4nc(N)cc(C)c4C(F)(F)F)c(Cl)cc23)C(C)C1 (centres undefined) + CCn1c(-c2cccnc2C(C)OC)c2c3cc(ccc31)N1CCOC(CC(NC(=O)C(C(C)C)N(C)C(=O)C3(F)CCN(C(=O)C#CC(C)(C)N(C)C)CC3)C(=O)N3CCCC(N3)C(=O)OCC(C)(C)C2)C1', '422866-222-R5-J1-PDC complex spheroids viability', '> 8.50'),
  ('CCN1CCN(Cc2ccc(Nc3ncc(F)c(-c4cc(F)c5nc(C)n(C(C)C)c5c4)n3)nc2)CC1 + CCn1c(-c2cc(N3CCN(C)CC3)cnc2C(C)OC)c2c3cc(ccc31)-c1csc(n1)CC(NC(=O)C1CC1C)C(=O)N1CCCC(N1)C(=O)OCC(C)(C)C2', '422866-222-R5-J1-PDC complex spheroids viability', '> 8.50');

Please turn your attention to the following entry.
Which measured pIC50 belongs to CCC(CC)c1cc(NC2CCC(N)C2)n2nccc2n1 (centres undefined) + CCn1c(-c2cc(N3CCN(C)CC3)cnc2C(C)OC)c2c3cc(ccc31)-c1csc(n1)CC(NC(=O)C1CC1C)C(=O)N1CCCC(N1)C(=O)OCC(C)(C)C2 , tested on 422866-222-R5-J1-PDC complex spheroids viability? > 7.50

###

Test system: 422866-222-R5-J1-PDC complex spheroids viability
Assay: Anticancer human tumor 422866-222-R5-J1-PDC cell line growth inhibition [RAS];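 further: spheroids exposed to compounds for 7 days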;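 on viability, T/C: 100% = DMSO vehicle control viability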
Conditions: second compound 0.03 µM; first compound 0.1 µM; stronger effect = lower value
This section presents compounds with their documented viability, T/C values.

Below are worked cases with known answers.
INSERT INTO assay_data (compound, targetorsystem, observedproperty, value) VALUES
  ('NC1c2ccccc2OC12CCN(c1cnc3c(N4CCCc5ncccc54)n[nH]c3n1)CC2 (centres undefined) + CCn1c(-c2cc(N3CCN(C)CC3)cnc2C(C)OC)c2c3cc(ccc31)-c1csc(n1)CC(NC(=O)C1CC1C)C(=O)N1CCCC(N1)C(=O)OCC(C)(C)C2', '422866-222-R5-J1-PDC complex spheroids viability', 'viability, T/C', '16.4%'),
  ('CCN1CCN(Cc2ccc(Nc3ncc(F)c(-c4cc(F)c5nc(C)n(C(C)C)c5c4)n3)nc2)CC1 + CCn1c(-c2cc(N3CCN(C)CC3)cnc2C(C)OC)c2c3cc(ccc31)-c1csc(n1)CC(NC(=O)C1CC1C)C(=O)N1CCCC(N1)C(=O)OCC(C)(C)C2', '422866-222-R5-J1-PDC complex spheroids viability', 'viability, T/C', '17.3%'),
  ('CCN1CCN(Cc2ccc(Nc3ncc(F)c(-c4cc(F)c5nc(C)n(C(C)C)c5c4)n3)nc2)CC1 + CCn1c(-c2cccnc2C(C)OC)c2c3cc(ccc31)N1CCOC(CC(NC(=O)C(C(C)C)N(C)C(=O)C3(F)CCN(C(=O)C#CC(C)(C)N(C)C)CC3)C(=O)N3CCCC(N3)C(=O)OCC(C)(C)C2)C1', '422866-222-R5-J1-PDC complex spheroids viability', 'viability, T/C', '19.1%');

Please turn your attention to the following entry.
Fill in: viability, T/C of Nc1ccn(C2OC(CO)C(O)C2(F)F)c(=O)n1 (centres undefined) + CCn1c(-c2cccnc2C(C)OC)c2c3cc(ccc31)N1CCOC(CC(NC(=O)C(C(C)C)N(C)C(=O)C3(F)CCN(C(=O)C#CC(C)(C)N(C)C)CC3)C(=O)N3CCCC(N3)C(=O)OCC(C)(C)C2)C1 is ___ 13.3%
